Collected Tmonset (° C.) By Differential Scanning Calorimetry (DSC) values appear next to each entry.
- Assay details: Thermal stability by differential scanning calorimetry (DSC)
- Type: physicochemical
- Condition notes: HBS, 0.5 mg/mL; 25° C. to 100° C. at 1° C./minute
Please respond with the number in °C and leave the unit unwritten.

- Molecule: "IgV V45C_M105C: CD58 domain 1 with V45 and M105 replaced by cysteines to form a disulfide bridge (protein) SQQIYGVVYGNVTFHCPSNVPLKEVLWKKQKDKVAELENSEFRAFSSFKNRVYLDTVSGSLTIYNLTSSDEDEYECESPNITDTMKFFLYVLESGGGGSHHHHHHHH"
  Value units: "°C"
  Measured number: 43.9

Input: Identify measured Tmonset (° C.) By Differential Scanning Calorimetry (DSC) associated with CD58 Full ECD: recombinant human CD58 full extracellular domain with C-terminal 8×his tag (protein, C-terminal 8xHis tag, recombinant human CD58 full extracellular domain with C-terminal 8×his tag) SQQIYGVVYGNVTFHVPSNVPLKEVLWKKQKDKVAELENSEFRAFSSFKNRVYLDTVSGSLTIYNLTSSDEDEYEMESPNITDTMKFFLYVLESLPSPTLTCALTNGSIEVQCMIPEHYNSHRGLIMYSWDCPMEQCKRNSTSIYFKMENDLPQKIQCTLSNPLFNTTSSIILTTCIPSSGHSRHRGGGGSHHHHHHHH
Output: 48.8

// data source = patent US12624118B2
